Target: Heat shock protein HSP 90-beta (Homo sapiens)
Sequence (P08238 whole entry): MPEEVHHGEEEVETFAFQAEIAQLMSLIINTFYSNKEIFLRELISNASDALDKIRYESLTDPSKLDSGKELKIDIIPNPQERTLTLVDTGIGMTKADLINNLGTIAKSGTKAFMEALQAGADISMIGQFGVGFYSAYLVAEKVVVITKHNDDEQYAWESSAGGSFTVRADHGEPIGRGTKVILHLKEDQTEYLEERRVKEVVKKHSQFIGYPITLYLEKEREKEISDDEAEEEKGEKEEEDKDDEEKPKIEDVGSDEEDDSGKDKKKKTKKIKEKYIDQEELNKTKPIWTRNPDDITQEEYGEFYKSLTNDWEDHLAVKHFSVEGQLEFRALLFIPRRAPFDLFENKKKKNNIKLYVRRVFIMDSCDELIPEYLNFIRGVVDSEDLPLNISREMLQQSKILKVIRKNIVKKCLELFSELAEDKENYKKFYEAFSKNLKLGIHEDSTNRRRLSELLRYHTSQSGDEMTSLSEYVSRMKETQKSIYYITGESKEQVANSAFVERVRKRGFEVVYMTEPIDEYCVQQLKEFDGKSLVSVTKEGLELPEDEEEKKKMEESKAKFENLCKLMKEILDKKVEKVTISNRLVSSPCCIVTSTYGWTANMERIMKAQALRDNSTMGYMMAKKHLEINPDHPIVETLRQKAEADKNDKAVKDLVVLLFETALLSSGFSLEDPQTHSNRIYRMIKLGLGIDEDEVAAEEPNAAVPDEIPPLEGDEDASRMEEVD
Test: Binding affinity to Hsp90 by fluorescence polarization assay
ENDPOINT: IC50 (nM)
The reply should be a number in nM, with the unit left off.

INSERT INTO measurements (structure_string, endpoint, display_unit, observed_result) VALUES
  ('Oc1cc(O)c(-c2noc3ccc(NCCN4CCOCC4)cc23)cc1Cl', 'IC50', 'nM', 30);

Switching to the query record.
For CS(=O)(=O)c1ccc(CN2CCN(c3cn[nH]c3-c3cc(Cl)c(O)cc3O)CC2)cc1 , write its IC50.
740

---

Biological target: Receptor tyrosine-protein kinase erbB-2 (Homo sapiens, UniProt P04626)
Sequence (P04626 whole entry): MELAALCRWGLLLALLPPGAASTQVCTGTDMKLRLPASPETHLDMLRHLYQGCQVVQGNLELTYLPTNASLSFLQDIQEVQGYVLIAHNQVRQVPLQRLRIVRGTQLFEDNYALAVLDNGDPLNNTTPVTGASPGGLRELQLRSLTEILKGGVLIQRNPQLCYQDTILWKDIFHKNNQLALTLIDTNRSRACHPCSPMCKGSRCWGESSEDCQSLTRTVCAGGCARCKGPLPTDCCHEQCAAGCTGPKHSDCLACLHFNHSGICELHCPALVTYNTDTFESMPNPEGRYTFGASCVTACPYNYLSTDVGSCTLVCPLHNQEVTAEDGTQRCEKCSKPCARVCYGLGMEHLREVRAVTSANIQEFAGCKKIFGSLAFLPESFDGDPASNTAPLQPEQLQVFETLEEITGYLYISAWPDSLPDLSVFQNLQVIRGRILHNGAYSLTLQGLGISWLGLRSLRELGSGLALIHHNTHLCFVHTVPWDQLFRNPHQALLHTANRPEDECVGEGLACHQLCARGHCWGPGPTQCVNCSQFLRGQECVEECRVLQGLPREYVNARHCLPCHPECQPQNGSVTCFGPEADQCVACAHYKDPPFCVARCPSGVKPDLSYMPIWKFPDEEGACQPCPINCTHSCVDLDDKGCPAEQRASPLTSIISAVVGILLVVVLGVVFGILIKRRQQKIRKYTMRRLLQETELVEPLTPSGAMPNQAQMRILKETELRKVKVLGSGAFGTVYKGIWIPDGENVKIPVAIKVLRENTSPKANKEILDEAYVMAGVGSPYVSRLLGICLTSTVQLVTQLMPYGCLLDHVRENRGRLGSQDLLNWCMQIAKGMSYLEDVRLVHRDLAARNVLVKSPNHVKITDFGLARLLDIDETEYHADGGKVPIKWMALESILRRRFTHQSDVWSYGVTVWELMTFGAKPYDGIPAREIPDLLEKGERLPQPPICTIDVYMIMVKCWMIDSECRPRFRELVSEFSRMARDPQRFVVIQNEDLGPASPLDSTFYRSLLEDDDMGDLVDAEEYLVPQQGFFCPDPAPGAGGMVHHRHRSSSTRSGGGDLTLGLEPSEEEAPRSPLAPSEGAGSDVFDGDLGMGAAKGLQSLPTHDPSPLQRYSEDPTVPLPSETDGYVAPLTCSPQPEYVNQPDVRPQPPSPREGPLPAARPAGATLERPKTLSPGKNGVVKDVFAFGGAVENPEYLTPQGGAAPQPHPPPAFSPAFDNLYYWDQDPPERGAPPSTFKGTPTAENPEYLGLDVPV
Test: Inhibition of Her2 in human SKBR3 cells
ENDPOINT: pIC50
A value of pIC50 is the negative decimal logarithm of a concentration given in moles per litre.

For C=CCNC1=C2C[C@@H](C)C[C@H](OC)[C@H](O)[C@@H](C)/C=C(\C)[C@H](OC(N)=O)[C@@H](OC)/C=C\C=C(/C)C(=O)NC(=CC1=O)C2=O , write its pIC50.
7.51
